Study System: hPPARγ (Homo sapiens)
Sequence (P37231 1-505): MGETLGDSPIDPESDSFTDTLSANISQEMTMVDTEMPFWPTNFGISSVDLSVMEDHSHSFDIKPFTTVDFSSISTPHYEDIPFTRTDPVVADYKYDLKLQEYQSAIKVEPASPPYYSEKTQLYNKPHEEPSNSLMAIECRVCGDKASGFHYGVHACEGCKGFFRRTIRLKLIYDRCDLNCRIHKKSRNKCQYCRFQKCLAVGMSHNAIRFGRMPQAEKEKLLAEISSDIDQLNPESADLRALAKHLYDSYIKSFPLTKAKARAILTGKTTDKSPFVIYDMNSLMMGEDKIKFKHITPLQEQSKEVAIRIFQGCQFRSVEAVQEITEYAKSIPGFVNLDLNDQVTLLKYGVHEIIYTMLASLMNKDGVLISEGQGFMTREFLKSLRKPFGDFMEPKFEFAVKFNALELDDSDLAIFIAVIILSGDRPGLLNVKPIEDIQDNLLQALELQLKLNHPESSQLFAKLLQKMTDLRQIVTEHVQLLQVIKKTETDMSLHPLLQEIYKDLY
Assay Protocol: In vitro hPPAR gamma activity (in-house protocol)
Reported Conditions: read-out: EC50 (PPAR gamma)
pEC50: −log10 of the molar value.
Measured Metric: pEC50

[[record]]
molecule = "Cn1c(COc2ccc(CC3COC(C)(C(=O)O)OC3)cc2)nc2ccccc2c1=O (stereo not drawn) [Example 66]"
reported = 7.82


P. Cc1oc(-c2ccccc2)nc1CCOc1ccc(CC2COC(C)(C(=O)O)OC2)cc1 (stereo not drawn) [Example 61]
Q. CC1(C(=O)O)OCC(Cc2ccc(OCCn3ccc4ccccc43)cc2)CO1 (stereo not drawn) [Example 70]
Task: Quick one: lower pEC50, P or Q ? Pick one and reply with its label.
Output: P
(P: 7.02, Q: 7.70)
